B1: FAM189A2 (parent)
chain: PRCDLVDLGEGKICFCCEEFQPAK

# Variants of: B1
# experiment: protein stability index of a GFP-peptide fusion (GPS, HEK-293T) (PSI 1-6); higher = more stable;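 note: lentivirally expressed fusions sorted by FACS into six bins by GFP to DsRed ratio, PSI derived from sequencing read proportions per bin multiplied by bin number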
# measurement.setup: c terminus: a fixed tail appended
Listing of entries alongside the reported protein stability index.
Enter a number only.

Check out these entries, answers already filled in.
PRCDLVDFGEGKICFCCEEFQPAK [L8F]    3.46
PRCDLVTLGEGKICFCCEEFQPAK [D7T]    2.79
PRCDLVWLGEGKICFCCEEFQPAK [D7W]    2.24
PRCDLVDLGESKICFCCEEFQPAK [G11S]    2.8
PRCDLVDLWEGKICFCCEEFQPAK [G9W]    2.08
PRCDLVDLGEHKICFCCEEFQPAK [G11H]    2.81

In: Using the record for VRCDLVDLGEGKICFCCEEFQPAK [P1V] , state its measured protein stability index.
Out: 1.87

In: Using the record for PRCDLVDLGEGKICFCCEEFQPLK [A23L] , state its measured protein stability index.
Out: 3.1
